Data provenance: ChEMBL document CHEMBL4043195

Experiment: Solubility in pH 5 acetate buffer by HPLC method
Assay type: physicochemical

{"recordSmiles": "Cl.Cl.O=[N+]([O-])c1cc(CSc2nnc(CCCCCN3CCN(Cc4ccccc4)CC3)o2)cc([N+](=O)[O-])c1", "solubility [mM]": 9}

* * *

Experiment: Cytotoxicity against African green monkey COS1 cells assessed as cell viability at 30 uM incubated for 48 hrs by CellTiter 96 aqueous one solution cell proliferation assay
Type: cell-based
Conditions: chlorocebus aethiops, COS-1 cells; read-out: Activity
recordedEndpoint: viability at 48 h, 30 µM (%)

{"recordSmiles": "Cl.Cl.O=[N+]([O-])c1cc(CSc2nnc(CCCCCN3CCN(Cc4ccccc4)CC3)o2)cc([N+](=O)[O-])c1", "recordedEndpoint": "viability at 48 h, 30 µM", "observedResult": 99}
